// data source = patent US10882835B2

- Experimental Details: Metabolic stability in murine liver microsomes
- Format: in vitro ADME
- Test Settings: mouse liver microsomes, 2 μM compound, NADPH
Observable: % at 30 min, MLM

Below: 5 compounds and their reported % at 30 min, MLM.
compound="CN1CCN(C(=O)[C@H](CCCCN[C@@H]2C[C@H]2c2ccc(F)cc2)NC(=O)c2ccccc2)CC1 [Example 12]" observable="% at 30 min, MLM" result="+ (+ is ≥20%)"
compound="O=C(N[C@@H](COCCN[C@@H]1C[C@H]1c1ccc(F)cc1)C(=O)N1CCOCC1)c1ccc(F)cc1 [Example 20]" observable="% at 30 min, MLM" result="− (− is <20%)"
compound="CN1CCN(C(=O)[C@H](CCCCN[C@@H]2C[C@H]2c2ccccc2)NC(=O)c2ccccc2)CC1 [Example 4]" observable="% at 30 min, MLM" result="+ (+ is ≥20%)"
compound="O=C(CN[C@@H]1C[C@H]1c1ccc(F)cc1)NC[C@H](NC(=O)c1ccc(F)cc1)C(=O)N1CCOCC1 [Example 21]" observable="% at 30 min, MLM" result="− (− is <20%)"
compound="O=C(N[C@@H](CCCCN[C@@H]1C[C@H]1c1ccc(F)cc1)C(=O)N1CCCCC1)c1ccc(F)cc1 [Example 13]" observable="% at 30 min, MLM" result="− (− is <20%)"

Entry C[C@@]1(NCCS(=O)(=O)C[C@H](NC(=O)c2ccc(F)cc2)C(=O)N2CCOCC2)C[C@H]1c1ccc(F)cc1 [Example 17] ; % at 30 min, MLM = − (− is <20%)

Item: O=C(N[C@@H](CCCCN[C@@H]1C[C@H]1c1ccccc1)C(=O)N1CCOCC1)c1ccccc1 [Example 6] | % at 30 min, MLM: + (+ is ≥20%)

====

- Experimental Details: Metabolic stability in murine liver microsomes
- Type: in vitro ADME
- Test Settings: mouse liver microsomes, 2 μM compound, NADPH
Observable: % at 30 min, MLM

Solved cases below.
molecule_smiles=COc1ccc([C@@H]2C[C@H]2NCCS(=O)(=O)C[C@H](NC(=O)c2ccc(F)cc2)C(=O)N2CCOCC2)cc1 result="− (− is <20%)"
molecule_smiles=COc1ccc([C@@H]2C[C@H]2NC(=O)COC[C@H](NC(=O)c2ccc(F)cc2)C(=O)N2CCOCC2)cc1 result="+ (+ is ≥20%)"
molecule_smiles=CN(C(=O)c1ccccc1)[C@@H](CCCCN[C@]1(C)C[C@H]1c1ccc(F)cc1)C(=O)N1CCN(S(C)(=O)=O)CC1 result="+ (+ is ≥20%)"
molecule_smiles=O=C(N[C@@H](CCCCN[C@@H]1C[C@H]1c1ccc(F)cc1)C(=O)N1CCCCC1)c1ccccn1 result="− (− is <20%)"
molecule_smiles=CS(=O)(=O)N1CCN(C(=O)[C@H](CCCN[C@@H]2C[C@H]2c2ccc(F)cc2)NC(=O)c2ccc(F)cc2)CC1 result="− (− is <20%)"
molecule_smiles=O=C(N[C@@H](CCCCN[C@@H]1C[C@H]1c1ccc(F)cc1)C(=O)N1CCCCC1)c1ccc(-c2ccccc2)cc1 result="− (− is <20%)"

response.value for `O=C(N[C@@H](CCCCN[C@@H]1C[C@H]1c1ccccc1)C(=O)N1CCCCC1)c1ccccc1` (field: % at 30 min, MLM) = − (− is <20%)

Reported % at 30 min, MLM for `O=C(N[C@@H](CCCCN[C@@H]1C[C@H]1c1ccc(F)cc1)C(=O)N1CCCCC1)c1ccccc1` was − (− is <20%)

So for `O=C(N[C@@H](CS(=O)(=O)CCN[C@@H]1C[C@H]1c1ccc(F)cc1)C(=O)N1CCOCC1)c1ccc(F)cc1` , the logged % at 30 min, MLM turned out to be − (− is <20%)
